Molecular target: human TLR8 (hTLR8) (Homo sapiens)
Sequence (Q9NR97 27-1041): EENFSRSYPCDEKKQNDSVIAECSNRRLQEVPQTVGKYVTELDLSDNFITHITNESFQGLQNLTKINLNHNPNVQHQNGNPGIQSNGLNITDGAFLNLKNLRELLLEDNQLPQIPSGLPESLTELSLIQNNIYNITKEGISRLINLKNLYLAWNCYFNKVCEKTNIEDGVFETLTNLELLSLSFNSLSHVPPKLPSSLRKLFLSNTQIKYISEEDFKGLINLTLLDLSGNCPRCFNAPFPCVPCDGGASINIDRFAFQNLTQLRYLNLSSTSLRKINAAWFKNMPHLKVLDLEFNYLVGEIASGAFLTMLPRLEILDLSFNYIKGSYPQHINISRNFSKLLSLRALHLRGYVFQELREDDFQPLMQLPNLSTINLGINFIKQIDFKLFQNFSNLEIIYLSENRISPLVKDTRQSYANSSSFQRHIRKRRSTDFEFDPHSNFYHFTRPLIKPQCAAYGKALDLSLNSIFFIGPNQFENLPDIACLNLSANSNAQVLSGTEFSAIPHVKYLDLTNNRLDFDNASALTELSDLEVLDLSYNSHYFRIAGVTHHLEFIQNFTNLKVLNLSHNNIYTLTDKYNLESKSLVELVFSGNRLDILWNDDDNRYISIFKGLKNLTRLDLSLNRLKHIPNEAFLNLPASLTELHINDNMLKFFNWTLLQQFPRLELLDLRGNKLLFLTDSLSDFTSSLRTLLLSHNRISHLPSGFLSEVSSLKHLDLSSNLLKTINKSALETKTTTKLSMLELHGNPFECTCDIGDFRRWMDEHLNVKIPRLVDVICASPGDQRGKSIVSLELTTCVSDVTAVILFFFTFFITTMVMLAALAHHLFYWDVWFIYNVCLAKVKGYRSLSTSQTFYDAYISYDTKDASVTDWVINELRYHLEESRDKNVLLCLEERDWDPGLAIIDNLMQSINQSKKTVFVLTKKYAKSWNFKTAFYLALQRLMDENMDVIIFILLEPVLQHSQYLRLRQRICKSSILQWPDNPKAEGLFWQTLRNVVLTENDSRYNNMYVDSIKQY
Test: Human TLR8 agonist activity assay (measured in a similar manner)
Settings: HEK-Blue TLR cells, SEAP reporter, measured in a similar manner to TLR7; some values average of multiple measurements
Catalogue of EC50 values

- cpd.smiles: "CCCCN(CCO)c1nc(N)nc2cn(Cc3ccc(CN[C@H]4CCOC4)c4nccnc34)nc12"
  EC50 [nM]: 1340
- cpd.smiles: "CCCCN(CCO)c1nc(N)nc2cn(Cc3ccc(CN4CC5(CC(OC)C5)C4)cc3OC)nc12"
  EC50 [nM]: 892
- cpd.smiles: "CCCCN(CCO)c1nc(N)nc2cn(Cc3ccc(CNC4CCC4)c4scnc34)nc12"
  EC50 [nM]: 310
- cpd.smiles: "CCCCN(CCO)c1nc(N)nc2cn(Cc3ccc(CNCCCCO)c4cccnc34)nc12"
  EC50 [nM]: 1140
